FYI, the data here is from patent US10294202B2.

System: corn
ASSAY COMMENT: Test A pre-/postemergence herbicide test
Assay type: in vivo, Zea mays
SETUP CONDITIONS: Postemergence, 500 g ai/ha
For each record, write down the corresponding Corn plant response rating (0 to 100 scale, 0 is no effect, 100 is complete control).
One number for each entry.

Worked cases, Corn plant response rating (0 to 100 scale, 0 is no effect, 100 is complete control) given:
Please look at this molecule and report its Corn plant response rating (0 to 100 scale, 0 is no effect, 100 is complete control): Cc1ccccc1NC(=O)C1C(=O)NCC1c1ccc(OC(F)F)cc1 (stereo not shown) [Compound 227] 0

Please look at this molecule and report its Corn plant response rating (0 to 100 scale, 0 is no effect, 100 is complete control): O=C1NCC(c2cccc(S(F)(F)(F)(F)F)c2)C1C(=O)Nc1ccccc1F (racemic) [Compound 213] 50

Please look at this molecule and report its Corn plant response rating (0 to 100 scale, 0 is no effect, 100 is complete control): CCc1cccc(C2CNC(=O)C2C(=O)Nc2ccccc2F)c1 (racemic) [Compound 169] 50

Please look at this molecule and report its Corn plant response rating (0 to 100 scale, 0 is no effect, 100 is complete control): O=C1NCC(c2cccc(C(F)F)c2)C1C(=O)Nc1cccc(F)c1F (racemic) [Compound 164] 80

Please give Corn plant response rating (0 to 100 scale, 0 is no effect, 100 is complete control) for each item listed below.
1. O=C1NCC(c2cc(F)cc(F)c2)C1C(=O)Nc1ccc(F)cc1F (racemic) [Compound 156]
2. Cc1cc(C2CNC(=O)C2C(=O)Nc2ccc(F)cc2F)ccc1F (racemic) [Compound 140]
3. COc1cc(C2CNC(=O)C2C(=O)Nc2ccccc2F)ccc1F (racemic) [Compound 194]
4. Cc1ccc(C2CNC(=O)C2C(=O)Nc2ccc(F)cc2F)cc1 (racemic) [Compound 150]
5. O=C1NCC(c2ccc(Cl)cc2)C1C(=O)Nc1cccc(F)c1F (stereo not shown) [Compound 218]

30
0
0
30
30

Please give Corn plant response rating (0 to 100 scale, 0 is no effect, 100 is complete control) for each item listed below.
1. O=C1NCC(c2ccc(C(F)(F)F)cc2)C1C(=O)Nc1ccccc1F (stereo not shown) [Compound 231]
2. O=C1NC[C@H](c2cccc(C(F)(F)F)c2)[C@H]1C(=O)Nc1cccc(F)c1F [Compound 206]
3. Cc1cc(C2CNC(=O)C2C(=O)Nc2ccc(F)c(F)c2F)ccc1F (racemic) [Compound 142]
4. COc1cc(C2CNC(=O)C2C(=O)Nc2ccc(F)c(F)c2F)ccc1F (racemic) [Compound 132]

[40, 80, 0, 0]
